Reference source: patent US20050234046A1

Molecular target: PPAR alpha (Homo sapiens)
Sequence (Q07869 239-466 limits assumed): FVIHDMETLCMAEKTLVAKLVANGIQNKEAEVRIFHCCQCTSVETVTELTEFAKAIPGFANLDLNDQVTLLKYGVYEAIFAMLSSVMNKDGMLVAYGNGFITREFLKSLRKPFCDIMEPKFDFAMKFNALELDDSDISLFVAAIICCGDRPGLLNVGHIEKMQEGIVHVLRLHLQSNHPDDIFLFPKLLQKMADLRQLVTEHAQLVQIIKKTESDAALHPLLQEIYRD
Test: Transient transfection (transactivation) assay in CV-1 cells, GAL4-PPAR chimera, luciferase reporter
# EC50 values compiled below

Some molecules with known EC50 results, for comparison:
{"MOLECULE": "Cc1cccc(N2CCN(S(=O)(=O)c3cc(CC(=O)O)ccc3C)CC2C)c1 (stereo not shown)", "TEST SYSTEM": "PPAR alpha (Homo sapiens)", "EC50": "> 100 µM"}
{"MOLECULE": "Cc1ccc(CC(=O)O)cc1S(=O)(=O)N1CCN(c2ccc(C#N)cc2)CC1", "TEST SYSTEM": "PPAR alpha (Homo sapiens)", "EC50": "> 100 µM"}
{"MOLECULE": "Cc1cccc(N2CCN(S(=O)(=O)c3cc(C)cc(CC(=O)O)c3)CC2C)c1 (stereo not shown)", "TEST SYSTEM": "PPAR alpha (Homo sapiens)", "EC50": "> 100 µM"}
{"MOLECULE": "C[C@H]1CN(S(=O)(=O)c2cccc(CC(=O)O)c2)CCN1c1ccc(OC(F)(F)F)cc1", "TEST SYSTEM": "PPAR alpha (Homo sapiens)", "EC50": "5 to 100 µM"}
{"MOLECULE": "C[C@@H]1CN(c2ccc(OC(F)(F)F)cc2)C[C@H](C)N1S(=O)(=O)c1cccc(CC(=O)O)c1", "TEST SYSTEM": "PPAR alpha (Homo sapiens)", "EC50": "5 to 100 µM"}
{"MOLECULE": "Cc1ccc(S(=O)(=O)N2CCN(c3ccc(C(F)(F)F)c(F)c3)C[C@@H]2C)cc1CC(=O)O", "TEST SYSTEM": "PPAR alpha (Homo sapiens)", "EC50": "5 to 100 µM"}
{"MOLECULE": "COc1ccc(S(=O)(=O)N2[C@H](C)CN(c3ccc(OC(F)(F)F)cn3)C[C@@H]2C)cc1CC(=O)O", "TEST SYSTEM": "PPAR alpha (Homo sapiens)", "EC50": "> 100 µM"}
{"MOLECULE": "Cc1cc(CC(=O)O)cc(S(=O)(=O)N2C[C@@H](C)N(c3ccc(C(F)(F)F)cn3)[C@@H](C)C2)c1", "TEST SYSTEM": "PPAR alpha (Homo sapiens)", "EC50": "5 to 100 µM"}
{"MOLECULE": "Cc1cc(CC(=O)O)cc(S(=O)(=O)N2CCN(c3ccc(Cl)c(Cl)c3)CC2)c1", "TEST SYSTEM": "PPAR alpha (Homo sapiens)", "EC50": "5 to 100 µM"}
{"MOLECULE": "COc1ccc(CC(=O)O)cc1S(=O)(=O)N1CCN(c2ccc(C(F)(F)F)cn2)CC1C (stereo not shown)", "TEST SYSTEM": "PPAR alpha (Homo sapiens)", "EC50": "> 100 µM"}

Returns the measured EC50 for the input molecule. Input: `Cc1ccc(S(=O)(=O)N2C[C@H](C)N(c3ccc(C(F)(F)F)cn3)[C@@H](C)C2)cc1CC(=O)O`
5 to 100 µM

Returns the measured EC50 for the input molecule. Input: `Cc1cc(CC(=O)O)cc(S(=O)(=O)N2CCN(c3ccc(C(F)(F)F)c(F)c3)C[C@@H]2C)c1`
5 to 100 µM

Returns the measured EC50 for the input molecule. Input: `O=C(O)Cc1cccc(S(=O)(=O)N2CCN(c3ccc(F)cc3)CC2)c1`
> 100 µM

Returns the measured EC50 for the input molecule. Input: `Cc1ccc(S(=O)(=O)N2CCN(c3nc(C(F)(F)F)cs3)CC2)cc1CC(=O)O`
> 100 µM

Returns the measured EC50 for the input molecule. Input: `Cc1ccc(S(=O)(=O)N2[C@@H](C)CN(c3ccc(C(F)(F)F)cn3)C[C@@H]2C)cc1CC(=O)O`
5 to 100 µM

Returns the measured EC50 for the input molecule. Input: `Cc1ccc(CC(=O)O)cc1S(=O)(=O)N1CCN(c2ccc(Cl)c(Cl)c2)CC1`
> 100 µM

Returns the measured EC50 for the input molecule. Input: `Cc1ccc(S(=O)(=O)N2CCN(c3ccc(C(F)(F)F)cn3)C(C)(C)C2)cc1CC(=O)O`
> 100 µM
